The measurements presented in this section are drawn from BigSolDB 2.1.

settings: in water, 318.1 K
measured_endpoint: solubility (mole fraction)
Would you mind answering with just the numeric figure?

IN: Name the reported solubility (mole fraction) value associated with the compound `CC(C)(C)CC(C)(C)c1ccc(O)cc1`
OUT: 2.52e-06

IN: Name the reported solubility (mole fraction) value associated with the compound `CCCCCCCCCc1ccc(O)cc1`
OUT: 1.4e-07

IN: Name the reported solubility (mole fraction) value associated with the compound `CCCCCCCCc1ccc(O)cc1`
OUT: 6.4e-07
